target: GABA-A receptor; alpha-3/beta-3/gamma-2 (Homo sapiens, UniProt P18507+P28472+P34903); test: Binding affinity for human recombinant gamma-aminobutyric-acid (GABA) A receptor alpha-3-beta-3-gamma-2; format: protein-complex assay
Lab note: cut-off is 50 nM. Strictly less in Ki is y. Exactly 50 nM or more is n.

Here are 6 molecules together with their reported answers.
[[record]]
molecule_smiles = "O=[N+]([O-])c1ccc2[nH]c3c[nH]c4c5ccccc5nc-4c3c2c1"
study_target = "GABA-A receptor; alpha-3/beta-3/gamma-2 (Homo sapiens, UniProt P18507+P28472+P34903)"
category = "n"

[[record]]
molecule_smiles = "CCOC(=O)c1[nH]cc2nc3ccc(OCc4ccc5ccccc5c4)cc3c-2c1COC"
study_target = "GABA-A receptor; alpha-3/beta-3/gamma-2 (Homo sapiens, UniProt P18507+P28472+P34903)"
category = "n"

[[record]]
molecule_smiles = "CN1C(=O)CN=C(c2ccccc2[N+](=O)[O-])c2cc([N+](=O)[O-])ccc21"
study_target = "GABA-A receptor; alpha-3/beta-3/gamma-2 (Homo sapiens, UniProt P18507+P28472+P34903)"
category = "y"

[[record]]
molecule_smiles = "O=c1c2cnc3ccc(Cl)cc3c2[nH]n1-c1ccccc1"
study_target = "GABA-A receptor; alpha-3/beta-3/gamma-2 (Homo sapiens, UniProt P18507+P28472+P34903)"
category = "y"

[[record]]
molecule_smiles = "O=C1CN=C(c2ccccc2)c2ccccc2N1"
study_target = "GABA-A receptor; alpha-3/beta-3/gamma-2 (Homo sapiens, UniProt P18507+P28472+P34903)"
category = "n"

[[record]]
molecule_smiles = "C#Cc1ccc2ncc3c(=O)n(-c4ccccc4)[nH]c3c2c1"
study_target = "GABA-A receptor; alpha-3/beta-3/gamma-2 (Homo sapiens, UniProt P18507+P28472+P34903)"
category = "y"


Now turn to the next molecule.
Asked: Does the reported Ki of [N-]=[N+]=Nc1ccc2c(c1)C(c1ccccc1N=[N+]=[N-])=NCC(=O)N2 stay below 50 nM?
Given back: n

---

Target: GABA-A receptor; alpha-1/beta-3/gamma-2 (Homo sapiens, UniProt P14867+P18507+P28472)
Sequence (P14867 whole entry): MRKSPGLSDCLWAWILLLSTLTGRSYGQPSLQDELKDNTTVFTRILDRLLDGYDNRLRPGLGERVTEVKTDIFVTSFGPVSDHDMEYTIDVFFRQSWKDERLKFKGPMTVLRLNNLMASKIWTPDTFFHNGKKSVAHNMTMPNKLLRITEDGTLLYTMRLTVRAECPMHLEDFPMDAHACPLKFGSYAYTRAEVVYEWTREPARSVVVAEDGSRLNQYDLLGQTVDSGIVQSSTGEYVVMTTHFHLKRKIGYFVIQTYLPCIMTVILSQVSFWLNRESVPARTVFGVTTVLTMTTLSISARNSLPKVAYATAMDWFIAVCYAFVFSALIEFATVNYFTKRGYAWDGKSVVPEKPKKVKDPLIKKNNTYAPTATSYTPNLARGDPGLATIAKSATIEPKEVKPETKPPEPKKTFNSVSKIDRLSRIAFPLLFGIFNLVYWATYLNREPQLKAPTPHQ
Sequence (P18507 whole entry): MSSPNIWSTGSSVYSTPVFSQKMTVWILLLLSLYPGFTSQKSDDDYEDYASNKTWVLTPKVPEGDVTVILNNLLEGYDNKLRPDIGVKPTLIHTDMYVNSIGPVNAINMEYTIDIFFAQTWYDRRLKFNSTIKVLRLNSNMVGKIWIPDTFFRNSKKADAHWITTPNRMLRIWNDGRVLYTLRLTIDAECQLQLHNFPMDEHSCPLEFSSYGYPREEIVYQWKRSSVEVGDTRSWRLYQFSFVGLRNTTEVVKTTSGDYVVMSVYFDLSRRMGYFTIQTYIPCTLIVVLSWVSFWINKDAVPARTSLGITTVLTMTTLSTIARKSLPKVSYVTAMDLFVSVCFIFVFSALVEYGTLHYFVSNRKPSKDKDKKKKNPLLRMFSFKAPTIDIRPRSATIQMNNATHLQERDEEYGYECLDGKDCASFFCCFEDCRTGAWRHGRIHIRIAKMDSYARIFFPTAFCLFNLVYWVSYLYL
Sequence (P28472 whole entry): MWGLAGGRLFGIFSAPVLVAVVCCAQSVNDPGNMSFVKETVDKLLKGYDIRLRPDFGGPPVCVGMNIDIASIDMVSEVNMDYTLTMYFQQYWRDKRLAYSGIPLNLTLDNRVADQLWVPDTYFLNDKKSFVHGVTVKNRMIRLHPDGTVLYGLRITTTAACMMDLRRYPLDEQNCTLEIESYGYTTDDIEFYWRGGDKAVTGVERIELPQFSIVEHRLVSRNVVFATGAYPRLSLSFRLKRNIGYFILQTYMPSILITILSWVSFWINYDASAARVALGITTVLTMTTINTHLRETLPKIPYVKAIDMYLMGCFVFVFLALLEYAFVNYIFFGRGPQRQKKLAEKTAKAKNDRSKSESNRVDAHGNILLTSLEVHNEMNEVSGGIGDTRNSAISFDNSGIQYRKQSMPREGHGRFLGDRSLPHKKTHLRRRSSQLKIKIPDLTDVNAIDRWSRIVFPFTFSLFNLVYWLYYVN
Test: Binding affinity for human recombinant gamma-aminobutyric-acid (GABA) A receptor alpha-1-beta-3-gamma-2
Type: protein-complex assay
Each entry below carries its reported Ki.
Please respond with the number in nM and leave the unit unwritten.

Recorded Ki, per entry:
[[record]]
molecule_smiles = "O=[N+]([O-])c1ccc2[nH]c3c[nH]c4c5ccccc5nc-4c3c2c1"
result_value = 244

[[record]]
molecule_smiles = "C[Si](C)(C)C#Cc1ccc(-n2[nH]c3c(cnc4ccccc43)c2=O)cc1"
result_value = 3

[[record]]
molecule_smiles = "CN1C(=O)CN=C(c2ccccc2)c2cc(C#N)ccc21"
result_value = 320

[[record]]
molecule_smiles = "COC(=O)c1cc2c3cc(NC4CCCCC4)ccc3nc-2c[nH]1"
result_value = 2.39

[[record]]
molecule_smiles = "CN1C(=O)CN=C(c2ccccc2)c2ccccc21"
result_value = 81

[[record]]
molecule_smiles = "Clc1cc2c(cn1)[nH]c1ccccc12"
result_value = 60.4

[[record]]
molecule_smiles = "c1cnc2c3[nH]cc4[nH]c5ccccc5c4c-3nc2c1"
result_value = 28

[[record]]
molecule_smiles = "CCOC(=O)c1[nH]cc2nc3ccc(O)cc3c-2c1COC"
result_value = 2


Asked: Need Ki of COc1ccc2c(c1)ncc1c(=O)n(-c3ccccc3)[nH]c12 , thanks.
Given back: 1.34

Asked: Need Ki of CC(C)c1nc(-c2ncn3c2CN(C)C(=O)c2c(Cl)cccc2-3)no1 , thanks.
Given back: 0.4

Asked: Need Ki of CCOC(=O)c1[nH]cc2nc3ccc(OCc4ccc5ccccc5c4)cc3c-2c1CC , thanks.
Given back: 183
